ΔTm, Cyclin-dependent kinase 2 (Homo sapiens, UniProt P24941), per-entry values.
Give just the number in °C; leave the unit off.

c1ccc(-c2n[nH]c3c2oc2ccccc23)cc1 ... 0.7

**Query** Under Cyclin-dependent kinase 2 (Homo sapiens, UniProt P24941): ΔTm value of `CCCNC(=O)Nc1ccc(Oc2ncnc3cc(OC)c(OC)cc23)cc1Cl` ?
**Result** -0.4

**Query** Under Cyclin-dependent kinase 2 (Homo sapiens, UniProt P24941): ΔTm value of `Clc1ccc(Nc2nnc(Cc3ccncc3)c3ccccc23)cc1` ?
**Result** -0.5

**Query** Under Cyclin-dependent kinase 2 (Homo sapiens, UniProt P24941): ΔTm value of `Oc1cccc(-c2nc(N3CCOCC3)c3oc4ncccc4c3n2)c1` ?
**Result** 0.4

**Query** Under Cyclin-dependent kinase 2 (Homo sapiens, UniProt P24941): ΔTm value of `CC(C)n1cnc2c(NCc3ccccc3O)nc(NCCCO)nc21` ?
**Result** 1.2

**Query** Under Cyclin-dependent kinase 2 (Homo sapiens, UniProt P24941): ΔTm value of `COc1cc2ncnc(Nc3cccc(Br)c3)c2cc1OC` ?
**Result** 0.1

**Query** Under Cyclin-dependent kinase 2 (Homo sapiens, UniProt P24941): ΔTm value of `CC(C)N(CCO)c1nc(Nc2cccc(Cl)c2)c2ncn(C(C)C)c2n1` ?
**Result** 4.5

**Query** Under Cyclin-dependent kinase 2 (Homo sapiens, UniProt P24941): ΔTm value of `NC1=NC(=O)/C(=C2\CCNC(=O)c3[nH]c(Br)cc32)N1` ?
**Result** 1.5

**Query** Under Cyclin-dependent kinase 2 (Homo sapiens, UniProt P24941): ΔTm value of `O=C1Nc2ccc(I)cc2/C1=C\c1cc(Br)c(O)c(Br)c1` ?
**Result** 1.2

**Query** Under Cyclin-dependent kinase 2 (Homo sapiens, UniProt P24941): ΔTm value of `CC(C)(C)n1nc(-c2cccc3ccccc23)c2c(N)ncnc21` ?
**Result** 0.1

**Query** Under Cyclin-dependent kinase 2 (Homo sapiens, UniProt P24941): ΔTm value of `C[C@@H](N)[C@H]1CC[C@H](C(=O)Nc2ccncc2)CC1` ?
**Result** 0.5

----------
biological target: Dual specificity protein kinase CLK1 (Homo sapiens) (UniProt P49759)
Sequence (P49759 whole entry, looked up): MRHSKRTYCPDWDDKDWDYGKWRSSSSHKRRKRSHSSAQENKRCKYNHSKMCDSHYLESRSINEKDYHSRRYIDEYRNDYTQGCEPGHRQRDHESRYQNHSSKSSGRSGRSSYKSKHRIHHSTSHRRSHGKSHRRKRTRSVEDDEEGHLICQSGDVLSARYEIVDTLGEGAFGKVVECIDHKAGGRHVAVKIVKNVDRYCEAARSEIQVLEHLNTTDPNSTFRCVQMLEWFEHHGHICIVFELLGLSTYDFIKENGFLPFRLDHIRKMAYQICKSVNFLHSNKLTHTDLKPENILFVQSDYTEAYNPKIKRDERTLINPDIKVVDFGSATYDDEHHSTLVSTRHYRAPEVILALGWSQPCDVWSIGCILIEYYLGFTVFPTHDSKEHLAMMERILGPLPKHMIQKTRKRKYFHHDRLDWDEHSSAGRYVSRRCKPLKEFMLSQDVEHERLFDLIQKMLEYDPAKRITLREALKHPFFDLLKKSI
Category key, based on recorded ΔTm: small value = under 0.9 °C, mid value = from 0.9 °C up to 3 °C, large value = 3 °C and over

Reference set, count: 4
Cc1nc(Nc2ncc(C(=O)Nc3c(C)cccc3Cl)s2)cc(N2CCN(CCO)CC2)n1 ... small value
Cn1cc(C2=C(c3cn(CCCSC(=N)N)c4ccccc34)C(=O)NC2=O)c2ccccc21 ... large value
COc1ccc2c(c1)/C(=C/c1cnc[nH]1)C(=O)N2 ... large value
CCOc1cc2ncnc(Nc3cccc(Br)c3)c2cc1OCC ... mid value

**Query** Which bin should I file `CC(C)[C@H](CO)Nc1nc(Nc2cc(N)cc(Cl)c2)c2ncn(C(C)C)c2n1` under?
**Result** large value

**Query** Which bin should I file `CC(C)n1cnc2/c(=N/c3cccc(Cl)c3)nc(NCCO)[nH]c21` under?
**Result** large value

**Query** Which bin should I file `N#C/C(=C\c1ccc(O)c(O)c1)C(=O)Nc1ccccc1` under?
**Result** mid value

**Query** Which bin should I file `Oc1cccc(-c2nc(N3CCOCC3)c3oc4ncccc4c3n2)c1` under?
**Result** small value

**Query** Which bin should I file `CC(C)c1cc(/C=C(\C#N)C(=O)NCCCc2ccccc2)cc(C(C)C)c1O` under?
**Result** mid value

**Query** Which bin should I file `COc1cc2c(cc1OC)-c1n[nH]c(Nc3cccc(F)c3)c1C2` under?
**Result** small value

**Query** Which bin should I file `COc1cc(C[C@H]2C(=O)OC[C@@H]2Cc2ccc(OC)c(OC)c2)ccc1O` under?
**Result** small value

**Query** Which bin should I file `O=c1cc(-c2ccc(O)cc2)oc2cc(O)cc(O)c12` under?
**Result** large value

**Query** Which bin should I file `Ic1cccc(CSc2nnc(-c3ccncc3)o2)c1` under?
**Result** mid value

**Query** Which bin should I file `Clc1ccc(Nc2nnc(Cc3ccncc3)c3ccccc23)cc1` under?
**Result** small value

**Query** Which bin should I file `NC(=O)c1ccc2[nH]c(-c3ccc(Oc4ccc(Cl)cc4)cc3)nc2c1` under?
**Result** mid value

**Query** Which bin should I file `N#CCCc1ccc2c(c1)-c1[nH]c3ccc([N+](=O)[O-])cc3c1CC(=O)N2` under?
**Result** large value

**Query** Which bin should I file `Cc1ccc(NC2=CC(=O)c3sc(C)nc3C2=O)cc1` under?
**Result** small value

**Query** Which bin should I file `O=C1Cc2c([nH]c3ccc(Br)cc23)-c2ccccc2N1` under?
**Result** mid value

**Query** Which bin should I file `COc1nccc(-c2c(-c3ccc(F)cc3)ncn2[C@H]2CC[C@H](O)CC2)n1` under?
**Result** mid value

**Query** Which bin should I file `Cc1c2ccncc2c(C)c2c1[nH]c1ccccc12` under?
**Result** large value

**Query** Which bin should I file `COc1cc2ncnc(Nc3cccc(O)c3)c2cc1OC` under?
**Result** large value

**Query** Which bin should I file Cl.Cn1cc(C2=C(c3ccc4cc5n(c4c3)CCC(CN)C5)C(=O)NC2=O)c2ccccc21 (stereo unspecified) under?
**Result** mid value

**Query** Which bin should I file `Cc1cc(C=C2C(=O)C=CC2=O)cc(C)c1O` under?
**Result** small value

**Query** Which bin should I file `c1ccc(-c2n[nH]c3c2oc2ccccc23)cc1` under?
**Result** mid value

**Query** Which bin should I file `O=C(O)c1cc(N(Cc2ccccc2O)Cc2cc(O)ccc2O)ccc1O` under?
**Result** small value
